target: T1, human apical domain of CD71 (human, UniProt P02786 189-383, limits assumed); test: primary ELISA; signal over HSA control
T1 construct: domain: apical domain
T1 sequence (P02786 189-383 limits assumed): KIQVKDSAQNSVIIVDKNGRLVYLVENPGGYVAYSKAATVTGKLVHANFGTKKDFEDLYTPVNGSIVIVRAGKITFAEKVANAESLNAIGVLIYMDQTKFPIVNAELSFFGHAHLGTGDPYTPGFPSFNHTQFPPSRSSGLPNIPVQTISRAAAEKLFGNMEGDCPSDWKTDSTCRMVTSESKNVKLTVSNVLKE
Exam item: assign y to entries whose Apical domain:HSA is below 100 ratio and n to entries at or above 100 ratio. Note that a value of exactly 100 ratio receives n.

Observe how each entry below is paired with its result.
INSERT INTO assay_data (binder, label) VALUES
  ('CD71-binding FN3 domain SEQ ID NO 387 (designed binder) MLPAPKNLVVSRVTEDSARLSWTAPDAAFDSFFIGYLEPQPPGEAIHLVVPGSERSYDLTGLKPGTEYNVTIQGVKGGFPSDPLYAWFTT', 'n'),
  ('CD71-binding FN3 domain SEQ ID NO 423 (designed binder) MLPAPKNLVVSRVTEDSARLSWTAPDAAFDSFFIGYLEPQPPGEAIALYVPGSERSYDLTGLKPGTEYNVTIQGVKGGFPSEPLVATFTT', 'y'),
  ('CD71-binding FN3 domain SEQ ID NO 402 (designed binder) MLPAPKNLVVSRVTEDSARLSWTAPDAAFDSFGIYYWEYTGGEAIVLTVPGSERSYDLTGLKPGTEYVVRILGVKGGAYSTPLSAIFTT', 'n');

Incoming: Say whether its Apical domain:HSA is strictly beneath 100 ratio. Entry: CD71-binding FN3 domain SEQ ID NO 404 (designed binder) MLPAPKNLVVSRVTEDSARLSWTAPDAAFDSFFIGYLEPQPPGEAIHLLVPGSERSYDLTGLKPGTEYNVTIQGVKGGFPSEPLLAIVTT
Outgoing: n

Incoming: Given CD71-binding FN3 domain SEQ ID NO 437 (designed binder) MLPAPKNLVVSRVTEDSARLSWTAPDAAFDSFFIGYLEPQPPGEAISLWVPGSERSYDLTGLKPGTEYNVTIQGVKGGFPSTPLSAKFTT , is recorded Apical domain:HSA strictly lower than 100 ratio?
Outgoing: n
